- test_details: Selectivity ratio of IC50 for equine serum BuChE to IC50 for electric eel AChE
We label by threshold. Values of Ratio IC50 strictly beneath 4 are MET. Values of 4 and up are NOT MET.

Use these answered entries as a reference point.
| smiles_data | class |
| --- | --- |
| COc1ccc2[nH]cc(CCNC(=O)CCOc3c(OC)ccc4cc5[n+](cc34)CCc3cc4c(cc3-5)OCO4)c2c1 | MET |
| COc1ccc2cc3[n+](cc2c1OCCCCOc1ccc(O)cc1)CCc1cc2c(cc1-3)OCO2 | MET |
| COc1ccc2cc3[n+](cc2c1OCCCOc1ccccc1O)CCc1cc2c(cc1-3)OCO2 | MET |
| COc1ccc2cc3[n+](cc2c1OCCCCOc1ccccc1O)CCc1cc2c(cc1-3)OCO2 | NOT MET |
| COc1ccc2cc3[n+](cc2c1OCCCOc1ccc(O)cc1)CCc1cc2c(cc1-3)OCO2 | NOT MET |

Field: below-cutoff. Rule: recorded Ratio IC50 strictly less than 4. Subject: COc1ccc2cc3[n+](cc2c1OCCC(=O)NCCc1c[nH]c2ccc(C)cc12)CCc1cc2c(cc1-3)OCO2
MET

Request: COc1ccc2cc3[n+](cc2c1OCCCCOc1cccc(O)c1)CCc1cc2c(cc1-3)OCO2
NOT MET

Request: COc1ccc2cc3[n+](cc2c1OCCCOc1cccc(O)c1)CCc1cc2c(cc1-3)OCO2
MET

Request: COc1cc(/C=C/C(=O)OCCCOc2c(OC)ccc3cc4[n+](cc23)CCc2cc3c(cc2-4)OCO3)ccc1O
MET
